Measured abundance fitness by item
B1: DnaJ homolog subfamily C member 5, residues 16 to 77; numbered along this chain, Q9H3Z4 (parent)
chain: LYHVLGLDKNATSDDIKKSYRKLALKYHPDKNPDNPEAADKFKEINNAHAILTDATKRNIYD

Variants of: B1
Procedure details: abundance fitness (aPCA) (normalised: wild type 0, dead -1); higher = more abundant; growth selection in yeast, the domain comes from the species named
Details: Homo sapiens
Output spec: single numeric token, no unit.

T12C    -0.235
A48D    -0.16

Incoming: Which abundance fitness value belongs to `K26W` ?
Outgoing: -0.477

Incoming: Query `N35H` next
Outgoing: -0.197

Incoming: Query `G6N` next
Outgoing: 0.069
